Molecular target: LmGSTs5 (Locusta migratoria)
Construct: E. coli JM109
Sequence (F4YUJ4 1-202): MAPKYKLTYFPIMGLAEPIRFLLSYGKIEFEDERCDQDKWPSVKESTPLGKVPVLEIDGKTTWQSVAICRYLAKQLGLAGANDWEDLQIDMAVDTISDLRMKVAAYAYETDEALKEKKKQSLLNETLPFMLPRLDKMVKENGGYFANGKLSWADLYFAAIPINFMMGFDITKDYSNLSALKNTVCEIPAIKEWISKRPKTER
Experiment: inhibition of CDNB-GSH conjugation, absorbance […] nm
Type: biochemical
Settings: read-out: I50
reported.endpoint: pIC50
When answering, recall that pIC50 equals minus log10 of the concentration in mol/L, and write that number alone.

Qu. Suppose we examine the compound "C=C(CC)C(=O)c1ccc(OCC(=O)O)c(Cl)c1Cl" ; what pIC50 value has been reported?
Ans. 4.47

----------
Biological target: LmGSTd1 (Locusta migratoria)
Construct: E. coli JM109
Sequence (E7BTM5 1-218): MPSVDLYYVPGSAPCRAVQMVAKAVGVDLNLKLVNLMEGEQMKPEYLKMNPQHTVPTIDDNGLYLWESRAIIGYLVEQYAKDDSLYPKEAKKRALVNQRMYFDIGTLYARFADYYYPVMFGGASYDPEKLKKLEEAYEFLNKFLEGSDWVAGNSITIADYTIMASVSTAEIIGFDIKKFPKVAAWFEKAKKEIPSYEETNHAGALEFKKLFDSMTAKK
Assay: inhibition of CDNB-GSH conjugation, absorbance […] nm
Format: biochemical
Settings: read-out: I50
reported.endpoint: IC50 (nM)
Field format: number, assumed nM, no unit text.

Qu. What value of IC50 on LmGSTd1 (Locusta migratoria) does "C=C(CC)C(=O)c1ccc(OCC(=O)O)c(Cl)c1Cl" have?
Ans. 2200

----------
Target: LmGSTt1 (Locusta migratoria)
Construct: E. coli BL21 (DE3)
Sequence (F4YUJ7 1-231): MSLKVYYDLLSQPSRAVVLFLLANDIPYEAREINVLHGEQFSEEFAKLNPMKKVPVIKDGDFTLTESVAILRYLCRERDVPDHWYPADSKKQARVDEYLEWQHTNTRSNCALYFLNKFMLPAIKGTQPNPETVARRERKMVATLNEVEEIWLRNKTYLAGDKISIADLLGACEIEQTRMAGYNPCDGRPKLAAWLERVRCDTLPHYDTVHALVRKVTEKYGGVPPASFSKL
Test: inhibition of CDNB-GSH conjugation, absorbance […] nm
Format: biochemical
Settings: read-out: I50
reported.endpoint: pIC50
When answering, recall that pIC50 equals minus log10 of the concentration in mol/L, and write that number alone.

Qu. Suppose we examine the compound "C=C(CC)C(=O)c1ccc(OCC(=O)O)c(Cl)c1Cl" ; what pIC50 value has been reported?
Ans. 5.33

----------
Target: LmGSTu1 (Locusta migratoria)
Construct: E. coli BL21 (DE3)
Sequence (F4YUI9 1-214): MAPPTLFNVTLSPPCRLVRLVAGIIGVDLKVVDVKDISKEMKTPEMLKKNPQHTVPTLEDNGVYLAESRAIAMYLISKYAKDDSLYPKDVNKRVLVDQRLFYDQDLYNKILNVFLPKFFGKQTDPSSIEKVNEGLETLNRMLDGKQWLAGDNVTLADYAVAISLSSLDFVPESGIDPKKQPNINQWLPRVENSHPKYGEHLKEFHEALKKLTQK
Assay: inhibition of CDNB-GSH conjugation, absorbance […] nm
Assay type: biochemical
Conditions: read-out: I50
reported.endpoint: IC50 (µM)
Field format: number, assumed µM, no unit text.

Qu. Suppose we examine the compound "C=C(CC)C(=O)c1ccc(OCC(=O)O)c(Cl)c1Cl" ; what IC50 value has been reported?
Ans. 3.27
